Test method notes: Cytotoxicity against human MT4 cells assessed as reduction in cell viability measured after 5 days by MTT assay
Type: toxicity, cell-based
Measurement context: time 5 day
CC50 at 120 h listing for selected molecules.

{"Molecule": "Cc1cc(-c2ccc(F)cc2)cc(C)c1Oc1nc(Nc2ccc(C#N)c(F)c2)nc2ccsc12", "Endpoint value": "97.3 µM"}

Task: Please look up its CC50 at 120 h: Cc1cc(C#N)cc(C)c1Oc1nc(Nc2ccc(C#N)cc2)nc(N)c1Br
Output: > 4.61 µM

Task: Moving on to the next molecule: Cc1cc(/C=C/C#N)cc(C)c1Oc1nc(NC2CCN(c3c(F)cc([N+](=O)[O-])cc3F)CC2)nc2ccsc12
Output: 99.5 µM
